Tested on: A549/ATCC NSCLC
Assay: NCI-60 one-dose screen, 48 h (100 = growth as untreated, 0 = no growth, -100 = all killed)
Settings: 10 µM unless noted
Compounds without any hit were thinned out: in the full panel of roughly 83,000, 20% have a hit. Active and inactive are the calls of the source. The calls were made as follows: active = growth percent below 10; inactive = the rest.
Reported growth values for the following compounds.

Field: example entries. Status: answers known.
Check A549/ATCC NSCLC data and give growth for OCCN1CCCCCCC1 .
99% (inactive)

Check A549/ATCC NSCLC data and give growth for Cl .
103% (inactive)

Check A549/ATCC NSCLC data and give growth for N#CC(C#N)N=Nc1ccc(Cl)cc1 .
105% (inactive)

Check A549/ATCC NSCLC data and give growth for c1ccc2c(c1)OC1OC2Oc2ccccc21 .
96.9% (inactive)

***
Check A549/ATCC NSCLC data and give growth for CC(C)C(C)(C)c1ccc(O)cc1 .
102% (inactive)

Check A549/ATCC NSCLC data and give growth for COc1cc(C(O)C2C(=O)OCC2C2(c3ccc4c(c3)OCO4)SCCCS2)cc(OC)c1OC (stereo unspecified) .
97.1% (inactive)
